Data origin, for the record: PubChem BioAssay (NCI)

Test system: SF-539 CNS
Assay: NCI tumour cell line growth inhibition, 48 h
Outcome measure: GI50

The following molecules have reported results that may help.
COc1cc(CNCCCCCCN2C(=O)c3cccc4cccc(c34)C2=O)ccc1O :: 1.82 µM
CSC1=NC(=Nc2c(C)cccc2C)C2(CCC(C(C)(C)C)CC2)N1c1ccc(Cl)cc1 (centres undefined) :: 71.7 µM
CC(=O)Nc1ccc(C(=O)CCl)cc1 :: 3.63 µM
O=C1NC(=S)S/C1=C\c1cn(-c2ccccc2)nc1-c1ccccc1 :: 5.53 µM
O=C(Nc1ccc(Oc2ccc(F)cc2)cc1)[C@@H]1C[C@@H](Cc2ccc(F)cc2)CN1C(=O)Cn1ccnn1 :: 10.6 µM
COc1cc2c(c(OC)c1OC)-c1ccc(NN(C(=O)c3ccccc3)C(=O)c3ccccc3)c(=O)cc1[C@@H](NC(C)=O)CC2 (tested in a mixture with another compound) :: 3.08 µM
O=C(Nc1ccc(Oc2ccc3nc(NC(=O)c4ccco4)[nH]c3c2)cc1)Nc1cc(C(F)(F)F)ccc1F :: 0.943 µM
N#CCn1c(=O)c(Oc2ccc(F)cc2F)cc2cnc(NC3CCOCC3)nc21 :: > 25 µM

The record that follows has no GI50 shown yet.
Give the value of GI50 reported for the following: C#Cc1cccc(Nc2ncnc3cc(NC(=O)CCl)ccc23)c1
3.48 µM
